Experiment: ArunA_Migration_hNP: ArunA Biomedical's Oris Neuroprogenitor (hNP) Cell Migration Assay (AID 2283754)
Records with an inconclusive call do not appear. The source made the active and inactive calls. The calls were made as follows: active = hit-call score of the fitted dose curve at least 0.9, where 1 is the maximum; inconclusive = response in the unintended direction; inactive = score below 0.9.
Respond with a class label; see label 1 for active, label 0 for inactive

Input: Which outcome did this test record for the molecule O=c1c(O)c(-c2ccc(O)c(O)c2)oc2cc(O)cc(O)c12 ?
Output: label 1

Input: Which outcome did this test record for the molecule COC(=O)c1ccc(O)cc1 ?
Output: label 0

Input: Which outcome did this test record for the molecule CCCc1cc(=O)[nH]c(=S)[nH]1 ?
Output: label 0

Input: Which outcome did this test record for the molecule Oc1ccc2ccccc2c1N=Nc1ccccc1 ?
Output: label 0

Input: Which outcome did this test record for the molecule Cc1cc(NC(=O)C(=O)O)cc(C)c1Oc1ccc(O)c2c1CCC2 ?
Output: label 0

Input: Which outcome did this test record for the molecule CCCCC(CC)COC(=O)CC(C(=O)OCC(CC)CCCC)S(=O)(=O)O (configuration not stated) ?
Output: label 1

Input: Which outcome did this test record for the molecule CCCCc1ccc2c(n1)[C@@H](c1ccc(OC)cc1C[C@H](C)C(=O)O)[C@H](C(=O)O)[C@H]2c1ccc2c(c1)OCO2 ?
Output: label 0

Hey, just so you know, these numbers are from PubChem BioAssay (EPA / NIEHS).
